Kindly supply the reported TGI values for the records listed here.
- Test system: MOLT-4 leukemia
- ASSAY_TEXT: NCI tumour cell line growth inhibition, 48 h

query: Identify the measured TGI of CCOC1OC(=O)[C@H]2[C@@H]1[C@@H]1CC[C@H]2O1 (stereo not given in full) for MOLT-4 leukemia.
result: > 100 µM

query: What do you get for `CCOC(=O)c1c(NCc2ccccc2)n(-c2ccccc2)c(=S)n(-c2ccccc2)c1=O` ?
result: > 100 µM

query: What do you get for `N#CC(C#N)=C(N)/C(C#N)=C/c1ccc2[nH]ccc2c1` ?
result: > 100 µM

query: What do you get for `CCOC(=O)c1c(N2CCOCC2)[nH]c(=O)c(C(c2cccs2)c2c(O)c(C(=O)OCC)c(N3CCOCC3)[nH]c2=O)c1O` ?
result: > 100 µM

query: What do you get for `Cc1c2ccncc2c(C)c2c1c1cc(CO)ccc1n2C` ?
result: 2.13 µM

query: What do you get for `COc1ccc2c(c1OC)C(=O)O[C@@H]2[C@H]1c2cc3c(cc2CCN1C)OCO3` ?
result: > 100 µM

query: What do you get for `CC(=O)c1ccc(N2CCN(C3=CC(=O)c4c(O)ccc(O)c4C3=O)CC2)cc1` ?
result: > 100 µM

query: What do you get for `NNc1c2ccccc2nc2ccccc12` ?
result: > 100 µM

query: What do you get for `N/C(=N\c1nc2ccccc2s1)NC(=NC1CCCCC1)NC1CCCCC1` ?
result: 5.45 µM

query: What do you get for COc1cc2c(c(OC)c1OC)-c1c(cc3c(c1OC)OCO3)CC(C)C(C)(O)C2OC(=O)c1ccccc1 (stereo not given) ?
result: 29.3 µM

====

- System: SF-295 CNS
- ASSAY_TEXT: NCI tumour cell line growth inhibition, 48 h
Where a SMILES comes first, the peptide text is derived from it. Bridges are numbered along the chain shown (N, C = ends). The star is where a group is joined. Cbz = O=C(OCc1ccccc1)*
ASSAY_METRIC: TGI

query: Identify the measured TGI of `O=C(Nc1ccccc1Cl)c1cccc(NC2=C(Cl)C(=O)N(Cc3ccccc3)C2=O)c1` for SF-295 CNS.
result: 92.3 µM

query: What do you get for `O=S(=O)(O)c1cc(O)c2c(O)c(N=Nc3cccc4ccccc34)c(S(=O)(=O)O)cc2c1` ?
result: > 100 µM

query: What do you get for `Cc1ccc(Sc2oc(-c3ccc(C)cc3)nc2[P+](c2ccccc2)(c2ccccc2)c2ccccc2)cc1` ?
result: 1.02 µM

query: What do you get for `C=C(Br)CNCC(=C)Br` ?
result: > 100 µM

query: What do you get for `O=C(CCc1nc(=S)[nH][nH]1)Nc1cccc(C(F)(F)F)c1` ?
result: > 100 µM

query: What do you get for CC(=O)C12C[C@](C#N)(N3CCCCCC3)C1C=Cc1ccccc12 (some centres undefined) ?
result: > 100 µM

query: What do you get for COC(=O)C1CCCCNC(=O)CCC(NC(=O)OCc2ccccc2)C(=O)N1 (stereo not drawn) (Cbz-Glu-Lys-OMe; lactam 1-2; configuration not given here) ?
result: > 100 µM

query: What do you get for O=C1CCC(N2C(=O)c3cccc(NCCCC4CCN(CCNC(=O)c5cc6c(o5)C(=O)c5ccccc5C6=O)CC4)c3C2=O)C(=O)N1 (centres undefined) ?
result: 0.711 µM

query: What do you get for `C/C(=C\Cc1cc(O)ccc1O)CCc1c(C)c(O)c(O)c(C=O)c1C` ?
result: 91.5 µM

query: What do you get for `Oc1c(Cl)cc(Cl)c2cccnc12` ?
result: > 100 µM

query: What do you get for CCN(CC)C(=O)COc1cc2c(O)c3c(O)c(C)c4c(c13)C(=O)C(C)(OC=CC(OC)C(C)C(OC(C)=O)C(C)C(O)C(C)C(O)C(C)C=CC=C(C)C(=O)N2)O4 (centres undefined) ?
result: > 100 µM

query: What do you get for `CCOC(=O)/C(C#N)=C(/NNc1ccccc1)c1ccncc1C(=O)O` ?
result: > 100 µM

query: What do you get for CC(C)(C)OC(=O)NCC(=O)NC1C/C(=N\O)c2sccc21 (centres undefined) ?
result: > 100 µM

query: What do you get for `C=C1C(=O)O[C@H]2[C@H]1CC/C(CNC(=O)/C=C/c1ccccc1)=C\CC[C@@]1(C)O[C@@H]21` ?
result: 18.7 µM

The origin of these recorded values is PubChem BioAssay (NCI).
